Values were extracted from patent US8119614B2.

- Test system: human erythroleukaemia K562
- Procedure summary: In vitro cytotoxic activity, Calcein AM assay, K-562
- Format: cell-based
- Applied conditions: 72 hours, read-out: IC 50 K-562
Item-by-item account of IC50
Measured attribute: IC50 (µM)

COc1ccc(O)c(CNc2ncnc3c2ncn3[C@@H]2O[C@H](CO)[C@@H](O)[C@H]2O)c1 [2-hydroxy-5-methoxybenzylamino]: 15.4
OC[C@H]1O[C@@H](n2cnc3c(NCc4ccc(Cl)cc4Cl)ncnc32)[C@H](O)[C@@H]1O: 85.7
OCC1OC(n2cnc3c(NCc4ccc(Cl)cc4)nc(Cl)nc32)C(O)C1O (stereo not shown): 15
COc1cccc(CNc2nc(Cl)nc3c2ncn3[C@@H]2O[C@H](CO)[C@@H](O)[C@H]2O)c1O [R2 = Cl, 2-hydroxy-3-methoxybenzylamino]: 17
COc1ccccc1CNc1nc(Cl)nc2c1ncn2C1OC(CO)C(O)C1O (stereo not shown): 14.5
OC[C@H]1O[C@@H](n2cnc3c(NCc4cccc(Cl)c4O)ncnc32)[C@H](O)[C@@H]1O [2-hydroxy-3-chlorobenzylamino]: 10.7
Nc1nc(NCc2ccc(F)cc2)c2ncn([C@@H]3O[C@H](CO)[C@@H](O)[C@H]3O)c2n1: 13
COc1ccccc1CNc1nc(N)nc2c1ncn2[C@@H]1O[C@H](CO)[C@@H](O)[C@H]1O: 34.9

----------
- System: HOS
- Procedure summary: In vitro cytotoxic activity, Calcein AM assay, HOS
- Assay type: cell-based
- Applied conditions: 72 hours
Measured attribute: IC50

COc1cccc(CNc2nc(Cl)nc3c2ncn3[C@@H]2O[C@H](CO)[C@@H](O)[C@H]2O)c1O [R2 = Cl, 2-hydroxy-3-methoxybenzylamino]: > 167 µM
OCC1OC(n2cnc3c(NCc4ccccc4Cl)nc(Cl)nc32)C(O)C1O (centres unmarked): > 167 µM
COc1ccc(CNc2ncnc3c2ncn3[C@@H]2O[C@H](CO)[C@@H](O)[C@H]2O)cc1O [3-hydroxy-4-methoxybenzylamino]: > 167 µM
COc1cccc(CNc2ncnc3c2ncn3[C@@H]2O[C@H](CO)[C@@H](O)[C@H]2O)c1O [2-hydroxy-3-methoxybenzylamino]: > 167 µM
COc1ccccc1CNc1nc(Cl)nc2c1ncn2C1OC(CO)C(O)C1O (centres unmarked): 15.3 µM
Cc1ccccc1CNc1ncnc2c1ncn2[C@@H]1O[C@H](CO)[C@@H](O)[C@H]1O [2-methylbenzylamino, 6-(2-methylbenzylamino)purine riboside]: > 167 µM
OC[C@H]1O[C@@H](n2cnc3c(NCc4ccc(F)cc4F)ncnc32)[C@H](O)[C@@H]1O: > 167 µM
OCC1OC(n2cnc3c(NCc4ccccc4F)nc(Cl)nc32)C(O)C1O (centres unmarked): > 167 µM
Nc1nc(NCc2cccc(F)c2)c2ncn([C@@H]3O[C@H](CO)[C@@H](O)[C@H]3O)c2n1: > 167 µM
OC[C@H]1O[C@@H](n2cnc3c(NCc4ccc(F)cc4)ncnc32)[C@H](O)[C@@H]1O [4-fluorobenzylamino, 6-(4-fluorobenzylamino)purine riboside]: 20 µM
OC[C@H]1O[C@@H](n2cnc3c(NCc4cc(F)cc(F)c4)ncnc32)[C@H](O)[C@@H]1O: > 167 µM

----------
- Tested on: human erythroleukaemia K562
- Procedure summary: In vitro cytotoxic activity, Calcein AM assay, K-562
- Assay type: cell-based
- Applied conditions: 72 hours, read-out: IC 50 K-562
- Source text: One of the parameters used, as the basis for cytotoxicity assays, is the metabolic activity of viable cells. For example, a microtiter assay, which uses the Calcein AM, is now widely used to quantitate cell proliferation and cytotoxicity. For instance, this assay is used in drug screening programs and in chemosensitivity testing. […] The quantity of reduced Calcein AM corresponds to the number of vital cells in the culture. […]
Measured attribute: IC50 (µM)

OCC1OC(n2cnc3c(NCc4ccccc4F)nc(Cl)nc32)C(O)C1O (stereo not shown): 30
CSc1nc(NCc2ccccc2Cl)c2ncn([C@@H]3O[C@H](CO)[C@@H](O)[C@H]3O)c2n1: 78
COc1cccc(CNc2ncnc3c2ncn3[C@@H]2O[C@H](CO)[C@@H](O)[C@H]2O)c1O [2-hydroxy-3-methoxybenzylamino]: 19.2
OC[C@H]1O[C@@H](n2cnc3c(NCc4ccc(F)cc4F)ncnc32)[C@H](O)[C@@H]1O: 7.4
CSc1nc(NCc2ccccc2F)c2ncn([C@@H]3O[C@H](CO)[C@@H](O)[C@H]3O)c2n1: 42
OC[C@H]1O[C@@H](n2cnc3c(NCc4ccccc4O)nc(Cl)nc32)[C@H](O)[C@@H]1O [R2 = Cl, 2-hydroxybenzylamino]: 75
OCC1OC(n2cnc3c(NCc4ccccc4Cl)nc(Cl)nc32)C(O)C1O (stereo not shown): 61
CSc1nc(NCc2cccc(F)c2)c2ncn([C@@H]3O[C@H](CO)[C@@H](O)[C@H]3O)c2n1: 7.9
OC[C@H]1O[C@@H](n2cnc3c(NCc4cccc(F)c4)nc(Cl)nc32)[C@H](O)[C@@H]1O: 5.3
OC[C@H]1O[C@@H](n2cnc3c(NCc4ccc(F)c(Cl)c4)ncnc32)[C@H](O)[C@@H]1O: 4.1
OC[C@H]1O[C@@H](n2cnc3c(NCc4ccccc4F)ncnc32)[C@H](O)[C@@H]1O [2-fluorobenzylamino, 6-(2-fluorobenzylamino)purine riboside]: 33.2
OC[C@H]1O[C@@H](n2cnc3c(NCc4cccc(Cl)c4)nc(Cl)nc32)[C@H](O)[C@@H]1O: 28
